Where do the numbers come from? From the MegaScale stability set (Tsuboyama et al. 2023).

Would you kindly list folding stability dG for each of these variants?
B1: 2K2A (parent)
chain: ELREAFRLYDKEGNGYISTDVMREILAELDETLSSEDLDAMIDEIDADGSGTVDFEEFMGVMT

variants of: B1; test: folding stability dG (cDNA display proteolysis); higher = more stable; conditions: PBS, room temperature
Numbers only, in kcal/mol.

The following variants have reported results that may help.
{"variantIdentifier": "S35W", "measValue": 1.48}
{"variantIdentifier": "V53M", "measValue": 0.875}
{"variantIdentifier": "V21N", "measValue": 1.74}
{"variantIdentifier": "G13M", "measValue": 1.23}

Below are 2 variants. Give each one its folding stability dG.
1. M22I
2. M41C

[1.46, 1.37]

Below are 2 variants. Give each one its folding stability dG.
1. S35E
2. M22T

[2.15, 0.155]
